quantityMeasured: melting point

Some compounds with recorded melting point:
CC(=O)N1CCCC(C2=C(C#N)C(c3cccc4nonc34)c3c[nH]nc3N2)C1 (stereo not given) | 219 °C
CCc1c(OC)cc(C2CN(C)CCC2=O)cc1OC (stereo not given) | 84 to 85 °C

Return melting point (reported value) for this compound: "COC(=O)[C@@H]1C[C@H](OS(=O)(=O)c2ccccc2Br)C(=O)[C@@H]2[C@@]3(C)C[C@@H](c4ccoc4)OC(=O)[C@H]3CC[C@]21C"
162 to 163 °C

Determine its reported melting point: "Nc1cccc(NC(=O)Nc2ccc(N(CCCl)CCCl)cc2)c1"
182 to 183 °C

Item "CC(C)(C)c1cn2cccc(C=O)c2n1" : provide melting point
60 to 62 °C

Identify measured melting point corresponding to "CC(C)n1c(C(=O)O)c(-c2ccc(F)cc2)c2ccccc2c1=O"
128 to 130 °C

Give the value of melting point reported for the following: "COc1nc(C(F)(F)F)c(F)c(=O)n1-c1cc(C(=O)OC(C)C)c(Cl)cc1F"
104 to 106 °C

Tell me melting point reported for "CCOC(=O)c1ccc(NC(=O)C=C(C)c2ccc(Cl)cc2)cc1"
150 to 152 °C

Give me measured melting point, please, for this compound: "NC(=O)Cc1ccc(Oc2ccccc2)cc1"
161 to 163 °C

Please list melting point recorded for the compound "CCCCOc1c(C#N)c(C#N)c(OCCCC)c2ccccc12"
69 to 70 °C

---

Each record here notes measured melting point.

Example compounds with recorded melting point:
Cc1nc(-n2cn[nH]c2=O)sc1C(=O)NCc1cccnc1 | 278 to 279 °C
O=C1Nc2ccc(-c3cccc(Cl)c3)cc2C1=O | 159 to 161 °C
Cc1ccc(NC(=O)c2ccc(CN(C)C)c(C(F)(F)F)c2)cc1-c1ccc2cnncc2c1 | 240 to 241 °C
COC(=O)c1cc(C=O)ccc1C | 60 to 61 °C
COC(=O)c1ccc(N2CCNCC2)nc1 | 91 to 92 °C

Dear colleague, please send me the reported melting point for CCCCCc1c(C(C)C)nc(C(C)C)c(CO)c1-c1ccc(F)c(C(O)c2ccc(F)cc2)c1 (stereo unspecified) when you can.
118 to 120 °C

Tell me melting point reported for "COC(=O)c1ccc(OCCCNc2ccc(NCc3ccc4c(c3)OCCO4)cc2)cc1"
185 to 188 °C

Could you please provide reported melting point for "Cc1cc(N)nc(CCc2nc3cc(-c4ccc(S(=O)(=O)N5CCCCC5)cc4)cnc3[nH]2)c1" ? Thanks!
233 °C

Give the value of melting point reported for the following: COC(=O)C(NC(=O)C1CCCS1)C(C)C (stereo unspecified)
55 to 65 °C

Supply reported melting point belonging to this compound: "Nc1cc(OCCCl)ccc1F"
42 to 43 °C

Using the record for "CN1C(=O)CN(CCC#N)C1=O" , state its measured melting point.
53 °C

---

Item-by-item account of melting point

FC(F)(c1ccccc1)C(F)(F)c1ccc(Br)cc1 | 80 to 82 °C

Tell me melting point reported for "CCOC(=O)c1sc(Oc2ccc(C(C)=O)c(OC)c2)c2c1CCc1cnn(C)c1-2"
132 to 133 °C

Annotate the compound "Cc1nc(N)nc(N)c1C=CC(C)(C)c1ccc(Cl)cc1" with its measured melting point.
195 to 200 °C

Give recorded melting point. "CCOC(=O)/C=C\C(=O)Oc1cccc(-c2cn3c(n2)sc2ccccc23)c1"
126 to 128 °C

Specify melting point for "Clc1ccc(-c2cc(C3CCN(Cc4ccccc4)CC3)n[nH]2)cc1" and stop.
164 to 167 °C
